All values here come from patent US20260109721A1.

- Tested on: HeLa cells
- protocol_details: Cell viability assessment with resazurin assay (Method A)
- Type: cell-based
- condition_parameters: human
Examples of compounds with documented Cell Viability % (Average metabolic rate over all doses, Resazurin) follow.
assay_metric: Cell Viability % (Average metabolic rate over all doses, Resazurin) (%)

INSERT INTO assay_data (compound, experimental_value) VALUES
  ('CCCCCCCC/C=C\CCCCCCCCOC(=O)C(C)(C)CC(OCCCCCCCC/C=C\CCCCCCCC)O[Si](C)(C)OCCCCCCN1CCOCC1 (stereo not shown)', 110),
  ('CCCCCCCC/C=C\CCCCCCCCOC(=O)C(C)(C)CC(OCCCCCCCC/C=C\CCCCCCCC)O[Si](C)(C)OCCCCCCN1CCCCC1 (stereo not shown)', 84),
  ('CCCCCCCC/C=C\CCCCCCCCOC(=O)C(C)(C)CC(OCCCCCCCC/C=C\CCCCCCCC)O[Si](C)(C)OCCCCCCN(CCCCO)CCCCO (stereo not shown)', 96),
  ('CCCCC/C=C\C/C=C\CCCCCCCCOC(CCCCCCC/C=C\C/C=C\CCCCC)O[Si](C)(C)OCCCCCCN(CCO)CCO (stereo not shown)', 99),
  ('CCCCC/C=C\C/C=C\CCCCCCCCOC(CCCCCCC/C=C\C/C=C\CCCCC)O[Si](C)(C)OCCCCCCN(C)CC(O)CO (stereo not shown)', 90),
  ('CCCCC/C=C\C/C=C\CCCCCCCC(OCCCCCCCCCCCCCCCC)O[Si](C)(C)OCCCCCCN(CCO)CCO (stereo not shown)', 94),
  ('CCCCCCCC/C=C\CCCCCCCCOC(CCCCCCCCCCCCCCC)O[Si](C)(C)OCCCCCCN(CCO)CCO (stereo not shown)', 98),
  ('CCCCC/C=C\C/C=C\CCCCCCCCOC(CCCCCCC/C=C\C/C=C\CCCCC)O[Si](C)(C)OCCCCCCN(C)Cc1cn(C2[C@H](O)O[C@H](CO)[C@@H](O)[C@@H]2O)nn1 (stereo partly shown)', 92),
  ('CCCCC/C=C\C/C=C\CCCCCCCCOC(CCCCCCC/C=C\C/C=C\CCCCC)O[Si](C)(C)OCCCCCCN(CCCCO)CCCCO (stereo not shown)', 89),
  ('CCCCC/C=C\C/C=C\CCCCCCCCOC(CCCCCN(CCO)CCO)O[Si](C)(C)OCCCCCCCC/C=C\C/C=C\CCCCC (stereo not shown)', 102),
  ('CCCCCCCC/C=C\CCCCCCCC(OCC(CCCCCC)CCCCCCCC)O[Si](C)(C)OCCCCCCN(CCO)CCO (stereo not shown)', 98),
  ('CCCCCCCC/C=C\CCCCCCCC(OCC(CCCCCCCC)SCCCCCCCCCC)O[Si](C)(C)OCCCCCCN(CCO)CCO (stereo not shown)', 107),
  ('CCCCCCCC/C=C\CCCCCCCC(OCC(CCCCCCCC)SCCCCC)O[Si](C)(C)OCCCCCCN(CCO)CCO (stereo not shown)', 107);
